Molecular target: UniProtKB Q9P2K8
Assay: GCN2 enzyme inhibition assay (Transcreener ADP2 fluorescence polarization)
Type: biochemical
Settings: compounds of Formula II; 280 μM ATP, 4 nM GCN2 kinase
quantity-kind: Ki

Examples with answers:
Notebook entry, UniProtKB Q9P2K8 assay: Ki of FC(F)c1ccc2ncc(-c3cc(C4CCCN(C5COC5)C4)ncn3)n2n1 (single isomer, unassigned) [II-242] = ? 10 to 1000 nM

API: value(readout=Ki, system=UniProtKB Q9P2K8) for record CS(C)(=O)=NC1CCCN(c2cc(-c3cnc4ccc(C(F)(F)F)nn34)ncn2)C1 (centres unmarked) [II-407] 10 to 1000 nM

Given the entry FC(F)c1ccc2ncc(-c3ccnc(N4CCOC(c5cn[nH]c5)C4)c3)n2n1 (centres unmarked) [II-108] , what Ki was observed with UniProtKB Q9P2K8? 10 to 1000 nM

# returns recorded Ki (system: UniProtKB Q9P2K8) for FC(F)c1ccc2ncc(-c3ccnc(N4CCOCC4)c3)n2n1 [II-76] 10 to 1000 nM

API: value(readout= Ki, system= UniProtKB Q9P2K8, query= O=C1CCN(c2cc(-c3cnc4ccc(C(F)F)nn34)ncn2)CCN1 [II-15] ) 10 to 1000 nM

Further cases:
Form entry - test system: UniProtKB Q9P2K8; read-out: Ki; compound: CCC1CC(N=S(C)(C)=O)CN(c2cc(-c3cnc4ccc(C(F)F)nn34)ncn2)C1 (centres unmarked) [II-648] < 10 nM

Which measured Ki belongs to CCC1COC(CNS(C)(=O)=O)CN1c1cc(-c2cnc3ccc(C(F)F)nn23)ncn1 (centres unmarked) [II-269] , tested on UniProtKB Q9P2K8? 10 to 1000 nM

Notebook: pull reported Ki for UniProtKB Q9P2K8, entry CC1CN(c2cc(-c3cnc4ccc(C(F)F)nn34)ncn2)CC(CNS(C)(=O)=O)C12OCCO2 (centres unmarked) [II-527] < 10 nM

----------
Target: GCN2 kinase (Homo sapiens, UniProt Q9P2K8)
Sequence (Q9P2K8 whole entry): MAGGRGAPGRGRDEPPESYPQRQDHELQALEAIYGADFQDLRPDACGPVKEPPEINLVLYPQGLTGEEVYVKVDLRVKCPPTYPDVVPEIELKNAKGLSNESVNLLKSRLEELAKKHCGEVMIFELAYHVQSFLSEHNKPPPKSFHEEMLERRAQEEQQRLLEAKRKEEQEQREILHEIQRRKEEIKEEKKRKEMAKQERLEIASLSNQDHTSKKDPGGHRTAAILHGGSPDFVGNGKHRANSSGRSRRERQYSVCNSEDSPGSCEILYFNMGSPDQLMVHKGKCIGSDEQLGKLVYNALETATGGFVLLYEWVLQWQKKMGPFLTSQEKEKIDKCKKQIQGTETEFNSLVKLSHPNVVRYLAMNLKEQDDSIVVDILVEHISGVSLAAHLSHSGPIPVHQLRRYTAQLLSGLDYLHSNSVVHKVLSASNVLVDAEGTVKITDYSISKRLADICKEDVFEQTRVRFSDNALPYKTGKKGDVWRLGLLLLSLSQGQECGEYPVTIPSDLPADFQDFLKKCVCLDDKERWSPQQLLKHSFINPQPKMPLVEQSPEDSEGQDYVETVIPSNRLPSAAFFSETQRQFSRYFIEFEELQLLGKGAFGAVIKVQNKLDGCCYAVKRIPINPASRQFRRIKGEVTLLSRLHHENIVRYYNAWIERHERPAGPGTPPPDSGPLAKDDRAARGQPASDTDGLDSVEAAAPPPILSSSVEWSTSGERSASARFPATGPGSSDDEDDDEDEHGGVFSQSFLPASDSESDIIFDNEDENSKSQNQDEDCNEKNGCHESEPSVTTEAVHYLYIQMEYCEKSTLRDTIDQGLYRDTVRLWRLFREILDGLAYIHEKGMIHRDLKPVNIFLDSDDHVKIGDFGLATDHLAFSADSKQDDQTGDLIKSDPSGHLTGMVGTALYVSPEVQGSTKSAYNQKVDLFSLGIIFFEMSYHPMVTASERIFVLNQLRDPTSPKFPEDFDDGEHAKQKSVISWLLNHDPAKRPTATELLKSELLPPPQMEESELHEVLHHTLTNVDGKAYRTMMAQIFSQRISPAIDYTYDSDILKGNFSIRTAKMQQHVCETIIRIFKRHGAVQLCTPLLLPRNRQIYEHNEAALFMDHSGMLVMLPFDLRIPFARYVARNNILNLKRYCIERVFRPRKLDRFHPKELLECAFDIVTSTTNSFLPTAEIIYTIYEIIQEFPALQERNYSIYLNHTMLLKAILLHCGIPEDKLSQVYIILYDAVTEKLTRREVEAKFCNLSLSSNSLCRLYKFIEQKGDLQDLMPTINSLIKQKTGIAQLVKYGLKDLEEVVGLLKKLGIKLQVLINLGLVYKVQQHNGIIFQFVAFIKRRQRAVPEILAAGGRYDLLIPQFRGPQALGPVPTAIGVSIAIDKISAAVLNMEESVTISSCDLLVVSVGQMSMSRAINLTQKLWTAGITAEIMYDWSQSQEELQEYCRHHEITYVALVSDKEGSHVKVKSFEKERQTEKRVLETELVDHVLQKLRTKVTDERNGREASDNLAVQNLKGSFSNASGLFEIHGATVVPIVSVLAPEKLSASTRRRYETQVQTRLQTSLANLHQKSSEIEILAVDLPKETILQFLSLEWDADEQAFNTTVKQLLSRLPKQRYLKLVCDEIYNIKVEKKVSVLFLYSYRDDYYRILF
Assay: GCN2 enzyme inhibition assay (Transcreener ADP2 fluorescence polarization)
Type: biochemical
Conditions: Enzyme activity for compounds of Formula IV; Ki(app), 280 μM ATP, 25° C.
quantity-kind: Ki

Consider the reported Ki for these compounds:
Form field: reported Ki of CC(=O)N1CCN(c2ccnc(-c3cnc4cnc(C(C)(F)F)cn34)n2)CC1 100 to 1000 nM

Report Ki for FC(F)c1cn2c(-c3nccc(N4CCC(C5COC5)C4)n3)cnc2cn1 (centres unmarked) please. 100 to 1000 nM

Requested read-out: Ki. Entry: FC(F)c1cn2c(-c3nccc(N4CCC(c5c[nH]cn5)C4)n3)cnc2cn1 (centres unmarked) 100 to 1000 nM

---
Query (compound): FC(F)(F)c1cn2c(-c3nccc(N4CCCC(c5cocn5)C4)n3)cnc2cn1 (centres unmarked) ; field requested: Ki 100 to 1000 nM

Record request: Ki value, item FC(F)(F)c1cn2c(-c3nccc(N4CCC(C5CCOC5)C4)n3)cnc2cn1 (centres unmarked) [IV-580] 10 to 100 nM

----------
Biological target: GCN2 kinase (Homo sapiens)
Assay: GCN2 enzyme inhibition assay (Transcreener ADP2 fluorescence polarization)
Assay type: biochemical
Settings: Enzyme activity for compounds of Formula IV; Ki(app), 280 μM ATP, 25° C.
Here the recorded Ki is given for each entry.

Param readout= Ki; system= GCN2 kinase (Homo sapiens); entry= NC(=O)c1cn2c(-c3nccc(N4CCN5C(=O)CCCC5C4)n3)cnc2cn1 (single isomer, unassigned) [IV-273] ; returns value. 100 to 1000 nM

Report Ki for CC(=O)NCC1CCCN(c2ccnc(-c3cnc4cnc(C(F)(F)F)cn34)n2)C1 (stereo not drawn) tested on GCN2 kinase (Homo sapiens). 100 to 1000 nM

Recall the recorded Ki for CC1CN(c2ccnc(-c3cnc4cnc(C(F)(F)F)cn34)n2)CC(c2cn[nH]c2)O1 (single isomer, unassigned) [IV-13] with GCN2 kinase (Homo sapiens) and state it. 10 to 100 nM

GET /values?readout=Ki&system=GCN2 kinase (Homo sapiens)&item= FC(F)(F)c1cn2c(-c3nccc(N4CCC(c5c[nH]nc5C(F)(F)F)C4)n3)cnc2cn1 (single isomer, unassigned) [IV-629] < 10 nM

Tell me reported Ki for NC(=O)C1CCN(c2ccnc(-c3cnc4cnc(C(F)(F)F)cn34)n2)CC1 , tested with GCN2 kinase (Homo sapiens). 100 to 1000 nM

Notebook entry, GCN2 kinase (Homo sapiens) assay: Ki of CC1C(C(N)=O)CCCN1c1ccnc(-c2cnc3cnc(C(F)(F)F)cn23)n1 (single isomer, unassigned) [IV-498] = ? 100 to 1000 nM

Others:
Test system GCN2 kinase (Homo sapiens); read-out Ki; what value for O=C1CC2(CCN(c3ccnc(-c4cnc5cnc(C(F)(F)F)cn45)n3)C2)CN1 (stereo not drawn) ? 100 to 1000 nM

// map FC(F)(F)c1cn2c(-c3nccc(N4CCCC(n5cncn5)C4)n3)cnc2cn1 (stereo not drawn) to recorded Ki (system: GCN2 kinase (Homo sapiens)) 100 to 1000 nM

What reported Ki corresponds to FC(F)(F)c1cn2c(-c3nccc(N4CCCCC4)n3)cnc2cn1 on GCN2 kinase (Homo sapiens)? 100 to 1000 nM

Missing value: Ki, GCN2 kinase (Homo sapiens), entry CC1C(c2cn[nH]c2)NCCN1c1ccnc(-c2cnc3cnc(Br)cn23)n1 (single isomer, unassigned) [IV-351] . Fill in? < 10 nM

What reported Ki corresponds to CC1CN(c2nc(-c3cnc4cnc(C(F)(F)F)cn34)ncc2F)CC(c2cn[nH]c2)O1 (single isomer, unassigned) [IV-335] on GCN2 kinase (Homo sapiens)? 10 to 100 nM

Provide the documented Ki with GCN2 kinase (Homo sapiens) as the system for CC1CC(CS(C)(=N)=O)C(C)N(c2ccnc(-c3cnc4cnc(C(F)F)cn34)n2)C1 (single isomer, unassigned) [IV-368] 100 to 1000 nM

Form entry - test system: GCN2 kinase (Homo sapiens); read-out: Ki; compound: FC(F)c1cn2c(-c3nccc(N4CCCC(c5cscn5)C4)n3)cnc2cn1 (stereo not drawn) 100 to 1000 nM

Lab note: need Ki with GCN2 kinase (Homo sapiens) for entry CC1CCN(c2ccnc(-c3cnc4cnc(C(F)(F)F)cn34)n2)CC1n1ccnc1 (stereo not drawn) [IV-320] , please look it up. 100 to 1000 nM

Checklist item: Ki tested on GCN2 kinase (Homo sapiens), entry O=C1NC[C@@H]2CCN(c3ccnc(-c4cnc5cnc(C(F)(F)F)cn45)n3)C[C@H]12 , value? 100 to 1000 nM
